Each recorded value in this set is attributed to ChEMBL document CHEMBL5576116.

system: HepG2; experiment: Antiproliferative activity against human HepG2 cells incubated for 72 hrs by MTT assay; type: functional, cell-based; settings: HepG2, 72 h
Reported property: pIC50
# reply with the number alone; pIC50 is -log10 of concentration in mol/L

Can you look up the measured pIC50 of `COC(=O)c1ccc(NC(=O)CCC(=O)Nc2ccc(C(=O)OC)cc2)cc1` for me?
4.62

* * *

# IC50 per record follows
assay: Cytotoxicity against HEK293 cells; assay type: toxicity, cell-based; settings: human

Examples with answers:
Smiles notation: COc1ccc(C(=O)NCCCNC(=O)c2ccc(-c3ccccc3)cc2)cc1
IC50: 3.3 µM

Smiles notation: COC(=O)c1ccc(NC(=O)CCC(=O)Nc2ccc(C(=O)OC)cc2)cc1
IC50: > 50 µM

Attention now turns to another entry.
Can you look up the measured IC50 of `COC(=O)c1ccc(C(=O)NCCCNC(=O)c2ccc(C(=O)OC)cc2)cc1` for me?
> 50 µM
